System: HepG2
Assay: cell viability relative to DMSO; higher = less toxic
Conditions: 72 h; 10000 nM
Provide the recorded cell viability for the entries that follow.
Answer with a number only, understood to be in %.

Query: Consider the compound O=C(OC[C@H]1O[C@@H](OC(=O)c2cc(O)c(O)c(OC(=O)c3cc(O)c(O)c(O)c3)c2)[C@H](OC(=O)c2cc(O)c(O)c(OC(=O)c3cc(O)c(O)c(O)c3)c2)[C@@H](OC(=O)c2cc(O)c(O)c(OC(=O)c3cc(O)c(O)c(O)c3)c2)[C@@H]1OC(=O)c1cc(O)c(O)c(OC(=O)c2cc(O)c(O)c(O)c2)c1)c1cc(O)c(O)c(OC(=O)c2cc(O)c(O)c(O)c2)c1 [tannic-acid] and give its recorded cell viability.
Response: 74.2

Query: Consider the compound CC(C)(C)NC(=O)[C@@H]1C[C@@H]2CCCC[C@@H]2CN1C[C@@H](O)[C@H](Cc1ccccc1)NC(=O)[C@H](CC(N)=O)NC(=O)c1ccc2ccccc2n1 [saquinavir] and give its recorded cell viability.
Response: 84.3

Query: Consider the compound CO/N=C1\CN(c2nc3c(cc2F)c(=O)c(C(=O)O)cn3C2CC2)CC1CN (configuration not stated) [gemifloxacin] and give its recorded cell viability.
Response: 86.8

Query: Consider the compound O=C(NC(Cc1cc(=O)[nH]c2ccccc12)C(=O)O)c1ccc(Cl)cc1 (configuration not stated) [rebamipide] and give its recorded cell viability.
Response: 104

Query: Consider the compound COc1cc2c(NC3CCN(C)CC3)nc(N3CCCN(C)CC3)nc2cc1OCCOCCN(C)C [UNC0321] and give its recorded cell viability.
Response: 102

Query: Consider the compound COc1cc(Cc2cnc(N)nc2N)c(C(C)C)cc1OC [Ro-3] and give its recorded cell viability.
Response: 103

Query: Consider the compound Nc1c2c(nc3c1CCC3)CCCC2 [ipidacrine] and give its recorded cell viability.
Response: 109

Query: Consider the compound CC(=O)Nc1ccc(OC(C)=O)cc1 [diacetamate] and give its recorded cell viability.
Response: 105

Query: Consider the compound C[C@H]1CNCCCN1S(=O)(=O)c1cccc2cncc(F)c12 [ripasudil] and give its recorded cell viability.
Response: 88

Query: Consider the compound O=C(Oc1ccccc1C(=O)O)c1ccccc1O [sasapyrine] and give its recorded cell viability.
Response: 105

Query: Consider the compound CN(C)C(=O)Nc1cccc(-c2ccc(N(C)C)cc2)c1 [atglistatin] and give its recorded cell viability.
Response: 113

Query: Consider the compound COc1ccc(C(=O)NCc2cccnc2)cc1C(=O)NCc1cccnc1 [picotamide] and give its recorded cell viability.
Response: 97

Query: Consider the compound NCCCC(O)(P(=O)(O)O)P(=O)(O)O [alendronate] and give its recorded cell viability.
Response: 88.8

Query: Consider the compound CN1CC2c3ccccc3Oc3ccc(Cl)cc3C2C1 (configuration not stated) [asenapine] and give its recorded cell viability.
Response: 96.7

Query: Consider the compound COc1ccc(C2=N[C@@H](c3ccc(Cl)cc3)[C@@H](c3ccc(Cl)cc3)N2C(=O)N2CCNC(=O)C2)c(OC(C)C)c1 [nutlin-3] and give its recorded cell viability.
Response: 35

Query: Consider the compound O=C(CSc1nc2c(c(=O)n1-c1ccccc1)SCC2)Nc1ccc(-c2ccccc2)cn1 [IWP-L6] and give its recorded cell viability.
Response: 99.3

Query: Consider the compound CC(C)=CCC/C(C)=C/CC/C(C)=C/CSc1ccccc1C(=O)O [salirasib] and give its recorded cell viability.
Response: 94.8

Query: Consider the compound O=C(CCCN1CCC(n2c(=O)[nH]c3ccccc32)CC1)c1ccc(F)cc1 [benperidol] and give its recorded cell viability.
Response: 97.5

Query: Consider the compound CN(C)CC[C@H](CSc1ccccc1)Nc1ccc(S(=O)(=O)NC(=O)c2ccc(N3CCN(Cc4ccccc4-c4ccc(Cl)cc4)CC3)cc2)cc1[N+](=O)[O-] [ABT-737] and give its recorded cell viability.
Response: 93

Query: Consider the compound O=C1NC(c2cccc([N+](=O)[O-])c2)=CCN1c1ccccc1O [icilin] and give its recorded cell viability.
Response: 101

Query: Consider the compound O=C(COc1ccc(Cl)cc1)N[C@H]1CC[C@H](NC(=O)COc2ccc(Cl)cc2)CC1 [ISRIB] and give its recorded cell viability.
Response: 96.3

Query: Consider the compound COC(=O)[C@@]12OC[C@]34[C@H]([C@@H](O)[C@@H]1O)[C@@]1(C)CC(=O)C(O)=C(C)[C@@H]1C[C@H]3OC(=O)[C@H](OC(=O)/C=C(\C)C(C)C)[C@@H]24 [bruceantin] and give its recorded cell viability.
Response: 0.9

Query: Consider the compound CC1=C(C(=O)O)N2C(=O)[C@@H](NC(=O)[C@H](N)c3ccccc3)[C@H]2SC1 [cephalexin] and give its recorded cell viability.
Response: 105

Query: Consider the compound CN1C(=O)COc2c(C(=O)NC3CN4CCC3CC4)cc(Cl)cc21 (configuration not stated) [azasetron] and give its recorded cell viability.
Response: 96.2

Query: Consider the compound Cc1[nH]c(/C=C2\C(=O)Nc3ccc(F)cc32)c(C)c1C(=O)NCCN1CCCC1 [toceranib] and give its recorded cell viability.
Response: 53.9

Query: Consider the compound CCN1CCN(C(=O)Cc2ccc(Nc3ncc(F)c(Nc4ccc(C(=O)Nc5ccccc5Cl)cc4)n3)cc2)CC1 [aurora-a-inhibitor-i] and give its recorded cell viability.
Response: 64.8

Query: Consider the compound O=Cc1cn(Cc2ccc(Cl)cc2)c2ccccc12 [oncrasin-1] and give its recorded cell viability.
Response: 1.2

Query: Consider the compound CCCCOc1ccc(CC/C=C2\SC(=O)N(CCN)C2=O)cc1 [K145] and give its recorded cell viability.
Response: 82.7

Query: Consider the compound Cc1sc(C)c2c1CCC=C2c1c[nH]cn1 [TC-G-1000] and give its recorded cell viability.
Response: 104

Query: Consider the compound Oc1ccc(Cl)c2c1CCC2 [chlorindanol] and give its recorded cell viability.
Response: 84.1

Query: Consider the compound CC(C)c1cc(-c2n[nH]c(=O)n2-c2ccc3c(ccn3C)c2)c(O)cc1O [ganetespib] and give its recorded cell viability.
Response: 1.1

Query: Consider the compound O=C(/C=C/c1ccc(O)c(O)c1)O[C@H](Cc1ccc(O)c(O)c1)C(=O)O [rosmarinic-acid] and give its recorded cell viability.
Response: 102
